Values were extracted from PubChem BioAssay (NCI).

Assay: NCI Yeast Anticancer Drug Screen. Data for the rad50 strain (AID 155);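 note: 0% = growth of vehicle-only cultures of the same strain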
Conditions: S. cerevisiae rad50 strain growth inhibition; at 50.0 µM; hits give high values
About 79,000 compounds went through this panel and 15% of them were active in at least one assay; those are over-represented in the sample as a whole.
# growth inhibition annotations
Endpoint Name: growth inhibition (%)

Compound | Endpoint Name | Readout Value
Cc1ccc(C2=CCNCC2)cc1 | growth inhibition | -9.45
O=c1c2cc(Br)ccc2[nH]c(=S)n1-c1ccc(Br)cc1 | growth inhibition | 9.95
CC1=CC(C)=Nc2ccc(C)cc2N1 | growth inhibition | -2.65
Clc1cc[c]([Pb]([Cl])([Cl])[c]2ccc(Cl)cc2)cc1 | growth inhibition | 22.9
NC(=O)C(Cl)(Cl)CCl | growth inhibition | 14.7
Cc1ccc2c(O)c3c(cc2c1)C(=O)c1c2c(cc(O)c1C3=O)C1(C)OC(O2)C(O)C(N(C)C)C1O (configuration not stated) | growth inhibition | 86.7
COC12C(COC(N)=O)C3=C(C(=O)C(C)=C(NC(C)C)C3=O)N1CC1NC12 (configuration not stated) | growth inhibition | 47.6
NP(=S)(Oc1ccc(Cl)cc1)Oc1ccc(Cl)cc1 | growth inhibition | 96.8
CCC(C)Sc1ccccc1OC(=O)NC (configuration not stated) | growth inhibition | -10.4
FC(F)(F)C1(F)N(Cc2ccccc2)C1(F)C(F)(F)F (configuration not stated) | growth inhibition | 9.1
COc1ccc(Br)c(/C=C/[N+](=O)[O-])c1 | growth inhibition | 99.5
CSCCC([NH-])C(=O)O.CSCCC([NH-])C(=O)O.[Zn+2] (configuration not stated) | growth inhibition | 98.2

---

# growth inhibition annotations
Test: NCI Yeast Anticancer Drug Screen. Data for the mlh1 rad18 strain (AID 175)
Settings: S. cerevisiae mlh1 rad18 strain growth inhibition; at 50.0 µM; hits give high values
Compounds without any hit were thinned out: in the full panel of roughly 79,000, 15% have a hit.
Endpoint Name: growth inhibition (%)

Compound | Endpoint Name | Readout Value
COc1ccc(CC(N)c2ccccc2)cc1 (stereo unspecified) | growth inhibition | -3.5
CC(=O)Oc1ccc(/C=C/[N+](=O)[O-])cc1 | growth inhibition | 98.3
CC([NH-])C[NH-].[NH2-].[NH2-].[Pt+4] (stereo unspecified) | growth inhibition | -12.3
NC(=O)C(Cl)(Cl)CCl | growth inhibition | 6.65
N#CC(C#N)=NNc1cccc(Cl)c1Cl | growth inhibition | 90.2
CC(=O)NNc1ccccc1 | growth inhibition | 90.7
O=c1[nH]cc(N=Cc2ccccc2Cl)c(=O)[nH]1.[Cl][Pt][Cl] | growth inhibition | -9.05
c1ccc([As]2[As](c3ccccc3)[As](c3ccccc3)[As]2c2ccccc2)cc1 (stereo unspecified) | growth inhibition | 99.5
N/C(=N\N=C\c1ccccc1O)N[N+](=O)[O-] | growth inhibition | -5.85
COc1ccc2c(c1)C(=O)C(N)C2 (stereo unspecified) | growth inhibition | 20.1
CCCCCCCCCCC(O)C1CCC(C(O)CCC(O)C2CCC(CCCCCCC[C@H](O)CC3=C[C@@H](C)OC3=O)O2)O1 (stereo partly specified) | growth inhibition | 27.2
CC(=O)CC(C)=O.[Cl][Sb]1([Cl])[CH2]CC[CH2]1 | growth inhibition | 5.55
O=c1nc2n(CCN(CCCl)CCCl)c3cc(Cl)c(Cl)cc3nc-2c(=O)[nH]1 | growth inhibition | 26.4
CC1=C/C(=N\[Se]c2ccccc2)C(=O)C(C)=C1 | growth inhibition | 36.3
OC(CN(C1CCCCC1)C1CCCCC1)c1ccc(Cl)c(Cl)c1 (stereo unspecified) | growth inhibition | -28.2
O=[N+]([O-])c1ccc(/C=C/c2ccc(Cl)c(S(=O)(=O)F)c2)c(Cl)c1 | growth inhibition | -6.3
O=P1(CCBr)NCCCO1 (stereo unspecified) | growth inhibition | 7.5
[Cl][Sn]([Cl])([c]1ccccc1)[c]1ccccc1.c1ccc2nc(-c3ccc4ccccc4n3)ccc2c1 | growth inhibition | 93.2
CC1=C/C(=C2/N=C(N(C)C)SS2)C(C)=N1 | growth inhibition | 16.7
Cc1cc(C(C)(C)c2cc(C)c(O)c(C)c2)cc(C)c1O | growth inhibition | -12.3
C[As+](C)(C)c1cccc(N)c1 | growth inhibition | 0.45
CNC(=S)P(c1ccccc1)c1ccccc1 | growth inhibition | 10.4
COc1cc(/C=C/[N+](=O)[O-])c(OC)cc1Br | growth inhibition | 89.2
Cc1ccc2nc(NC(=O)C(=O)C3C(=O)NC(=S)NC3=O)sc2c1 | growth inhibition | -40
COc1ccc2c(c1OC)CC(N)C2O (stereo unspecified) | growth inhibition | 3.25
Cc1cc(C)n(SC(Cl)(Cl)Cl)n1 | growth inhibition | -13.7
C/C(=N\NC(N)=O)C(CN1CCCCC1)C(c1ccccc1)c1c(O)c2ccccc2oc1=O (stereo unspecified) | growth inhibition | 81.5
CC(N)Cc1ccc(Cl)cc1 (stereo unspecified) | growth inhibition | 3.6
CC1CCCC[N-]1.CC1CCCC[N-]1.N#C[S-].N#C[S-].[Cd] (stereo unspecified) | growth inhibition | 73
[C-]#[O+].[C-]#[O+].[C-]#[O+].[C-]#[O+].[C-]#[O+].[C-]#[O+].[C-]#[O+].[C-]#[O+].[C-]#[O+].[C-]#[O+].[Mn].[Mn] | growth inhibition | -25.9
CNC(=O)C(CC(C)[N+](C)(C)C)(c1ccccc1)c1ccccc1 (stereo unspecified) | growth inhibition | 11.4
NC(=Nc1ccccc1)N/N=C/c1c[nH]c2ccccc12 | growth inhibition | -50
CCOP(=O)(O)C(Nc1ccc(N=Nc2ccccc2)cc1)c1ccc(C(Nc2ccc(N=Nc3ccccc3)cc2)P(=O)(O)OCC)cc1 (stereo unspecified) | growth inhibition | 90.1
CCC(C(=O)NC1CN2CCC1CC2)c1ccccc1 (stereo unspecified) | growth inhibition | -13.2
CC1=C[C@H]2[C@@]3(O)[C@H](C)C[C@]4(OC(=O)C(C)C)[C@H]([C@@H]3C=C(CO)C[C@]2(O)C1=O)C4(C)C | growth inhibition | 10.8
CCCCOP(=O)(NCCOC)OCCCC | growth inhibition | 10.2
COP1(=O)OCC(C)(C)CO1 | growth inhibition | 35.8
CNC(Cc1ccccc1)c1ccc(OC)cc1 (stereo unspecified) | growth inhibition | 35.6
NCCc1cc2c3c(c1)CCCN3CCC2 | growth inhibition | 98.2
N.N.N.N.N#N.N#N.[Cl-].[Os+6] | growth inhibition | -39
CNC(=O)c1cn(C2OC(CO)C(O)C2O)c2ncnc(N)c12 (stereo unspecified) | growth inhibition | 5.65
CC1(C)N=C(N)N=C(N)N1c1ccc(CCc2cccc(Cl)c2S(=O)(=O)F)c(Cl)c1 | growth inhibition | 99.5
O=C1C=CC(=O)c2c(O)cccc21 | growth inhibition | 29.2
COP(=O)(OC)OC.COP(=O)(OC)OC.COP(=O)(OC)OC.COP(=O)(OC)OC.COP(=O)(OC)OC.COP(=O)(OC)OC.[Mn+2].[O-][Cl+3]([O-])([O-])O | growth inhibition | -9
CCOP(=O)(OCC)/C(C#N)=C/c1ccccc1OC | growth inhibition | 27.6
C/C(=N\N(C)C)C(CN1CCCCC1)C(c1ccccc1)c1c(O)c2ccccc2oc1=O (stereo unspecified) | growth inhibition | -9
